Tested on: Trypanosoma cruzi
Experimental protocol: Trypanosoma cruzi phosphomannomutase and mannose-1-phosphate guanylyltransferase assay
Format: functional
Parameters: scale not given: direction of the effect not stated beside the values
Stated conditions: 10 µM
Measured metric: Percent Effect (%)
Give bare numbers, in %.

Previously resolved entries follow.
- Compound: "C[C@H]1C[C@@H]2CCN(Cc3ccccn3)C[C@H]2O1"
  System name: "Trypanosoma cruzi"
  Percent Effect [%]: 1.27
- Compound: "O=C(Cc1ccc(F)cc1)N1CCN(CC(O)C2CC2)CC1 (stereo not drawn)"
  System name: "Trypanosoma cruzi"
  Percent Effect [%]: -5.09
- Compound: "COC[C@]12COC[C@H]1CN(Cc1cccnc1OC)C2"
  System name: "Trypanosoma cruzi"
  Percent Effect [%]: -4.32
- Compound: "CCN1CCC(c2cncc(N(C)C)n2)CC1"
  System name: "Trypanosoma cruzi"
  Percent Effect [%]: -2.76
- Compound: "CC(C)N1CCC2(CCN(C(=O)c3cccnc3)CC2)C1"
  System name: "Trypanosoma cruzi"
  Percent Effect [%]: -9.68
- Compound: "CC(Cn1cccn1)NCc1csc(-c2cccs2)n1 (stereo not drawn)"
  System name: "Trypanosoma cruzi"
  Percent Effect [%]: -4.81
- Compound: "COCCN1C[C@@H]2[C@@H](OC)CCN(Cc3cccc(C)n3)[C@@H]2C1"
  System name: "Trypanosoma cruzi"
  Percent Effect [%]: 6.75
- Compound: "Cc1cc(CC(=O)N2CCN(CC3CC3)[C@@H]3CS(=O)(=O)C[C@@H]32)ccc1F"
  System name: "Trypanosoma cruzi"
  Percent Effect [%]: 0.0972

For every record below, what is its Percent Effect?
1. Cc1ccccc1CC(=O)N1CCN(C2CCOC2=O)CC1 (stereo not drawn)
2. CC(C)=CCN1C[C@H]2CC[C@@H]1CN(C(=O)c1c[nH]c(=O)c(Cl)c1)C2
3. Cc1ccc(CN2CCC3(CC2)C(=O)N(C)c2ccccc23)s1

Response line:
1. -5.75
2. -5.16
3. -0.781

###

System name: Protein translocase subunit SecA (Escherichia coli (strain K12)) (UniProt P10408)
Sequence (P10408 whole entry): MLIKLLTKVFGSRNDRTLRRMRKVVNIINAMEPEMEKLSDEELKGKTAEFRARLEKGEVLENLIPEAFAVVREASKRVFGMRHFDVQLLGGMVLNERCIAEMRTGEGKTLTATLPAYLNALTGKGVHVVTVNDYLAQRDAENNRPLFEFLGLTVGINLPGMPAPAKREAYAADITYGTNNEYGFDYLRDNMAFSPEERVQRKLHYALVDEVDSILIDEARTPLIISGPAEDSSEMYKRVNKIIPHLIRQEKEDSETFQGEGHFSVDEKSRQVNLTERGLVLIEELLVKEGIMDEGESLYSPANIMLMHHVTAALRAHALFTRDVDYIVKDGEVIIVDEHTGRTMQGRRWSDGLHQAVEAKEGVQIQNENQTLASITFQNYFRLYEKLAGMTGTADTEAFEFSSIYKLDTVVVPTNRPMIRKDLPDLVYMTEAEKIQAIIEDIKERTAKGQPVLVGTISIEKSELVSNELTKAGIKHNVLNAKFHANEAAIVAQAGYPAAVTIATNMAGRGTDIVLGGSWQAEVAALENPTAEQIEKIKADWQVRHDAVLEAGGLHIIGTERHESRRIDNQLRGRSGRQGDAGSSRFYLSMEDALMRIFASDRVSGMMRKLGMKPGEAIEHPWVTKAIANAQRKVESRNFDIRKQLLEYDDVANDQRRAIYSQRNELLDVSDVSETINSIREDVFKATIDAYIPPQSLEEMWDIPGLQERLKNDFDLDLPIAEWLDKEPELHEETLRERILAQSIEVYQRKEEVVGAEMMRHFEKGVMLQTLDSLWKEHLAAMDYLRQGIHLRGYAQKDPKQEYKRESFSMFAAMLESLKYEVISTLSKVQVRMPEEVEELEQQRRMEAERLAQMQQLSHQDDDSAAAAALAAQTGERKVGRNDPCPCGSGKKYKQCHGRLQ
Experimental protocol: Assay to Identify E. coli SecA ATPase Inhibitors
Format: functional
Parameters: scale not given: direction of the effect not stated beside the values
Stated conditions: 30 µM
Measured potencies and affinities stand elsewhere.
Assign Percent Effect to each entry below.
Returns: string containing the number followed by the unit.

- Molecule: "CCc1nc(CC(=O)N2CCCC2CN2CCCC2)cs1 (configuration not stated)"
  Percent Effect: "-0.0825%"
- Molecule: "CN1CCCC(c2n[nH]c3ncccc23)C1 (configuration not stated)"
  Percent Effect: "-3.58%"
- Molecule: "c1ccc(CO[C@@H]2CO[C@@]3(CCN(Cc4ccccn4)C3)C2)nc1"
  Percent Effect: "-5.26%"
- Molecule: "CN(C)c1ncc2c(n1)C1(CCN(CC3CC3)C1)COC2 (configuration not stated)"
  Percent Effect: "2.42%"
- Molecule: "CN(C)c1nccc(N2CCO[C@H]3CN(Cc4ccsc4)C[C@H]32)n1"
  Percent Effect: "-0.682%"
- Molecule: "c1cncc(CO[C@H]2CO[C@@]3(CCN(Cc4ccoc4)C3)C2)c1"
  Percent Effect: "-2.55%"
- Molecule: "Cc1cc(CN2C[C@@H]3COC[C@]3(CNC(=O)c3ccno3)C2)no1"
  Percent Effect: "-5.72%"
- Molecule: "CN1CCC2(CC1)CNC(=O)c1ccccc1O2"
  Percent Effect: "-3.91%"

Each of the following entries comes with a recorded value; kindly state Percent Effect for each.
1. O=C(Cc1ccc(-n2cccn2)cc1)N1CCN2CCCCC2C1 (configuration not stated)
2. COCCN1C[C@@H]2CN(Cc3cccc(C)n3)C[C@@H]2C1=O
3. CO[C@@H]1CN(Cc2scnc2C)[C@@H]2CCCO[C@@H]21
4. O=C(Nc1cccnc1)[C@@H]1C[C@H]2OCC[C@H]2N(Cc2ccsc2)C1

Response line:
-4.18%
-2.33%
-5.71%
-6.23%

Required: Percent Effect, one value per molecule below.
1. CCN1CCC2(CC1)CC(Nc1ncccn1)CO2 (configuration not stated)
2. O=C(Cn1ccc2c(Cl)cccc21)N1CCC2(CC1)OCCO2

Response line:
1: -4.33%; 2: -2.33%

For every item below, please supply its Percent Effect.
1. COc1ccccc1OCC(=O)N1CCN(Cc2noc(C)n2)CC1
2. O=C(Nc1cccnc1)[C@H]1COC[C@H]2CN(C3CCCC3)C[C@H]21
3. c1ccc(O[C@H]2CC[C@H]3[C@H]2OCCN3Cc2nccs2)nc1
4. CCN1C[C@H]2[C@@H](C1)N(S(=O)(=O)c1cccnc1)CC[C@H]2OC
5. NCC1[C@H]2CN(CCc3ccccc3)C[C@@H]12 (some centres not stated)
6. COCC(=O)NC(C)Cc1cccc(OC)c1 (configuration not stated)
7. CCN1CCC2(COCc3cnc(NCC4CC4)nc32)C1 (configuration not stated)
8. Cc1cccc(CN2C(=O)C[C@H]3[C@@H]2CCN3CC2CC2)n1

Response line:
-5.45%
-5.23%
-1.17%
-0.0411%
-7.01%
-1.72%
1.53%
-1.8%

Look up Percent Effect for the entries below, preserving their order.
1. O=C(c1cnn2c1OCCC2)N1CCC2(CC1)OCCO2
2. Cc1cc(CN2CC[C@H]3C[C@H](c4nccs4)O[C@@H]3C2)no1

Response line:
1. -0.752%
2. 2.63%
